Each record here notes measured DC50.
- EXPERIMENTAL TARGET: B-RAF G466V (Homo sapiens, UniProt P15056, G466V)
- Construct: expressed in transfected cells; host or cells: T-Rex 293 cells (Invitrogen #R71007)
- Sequence (P15056 whole entry G466V): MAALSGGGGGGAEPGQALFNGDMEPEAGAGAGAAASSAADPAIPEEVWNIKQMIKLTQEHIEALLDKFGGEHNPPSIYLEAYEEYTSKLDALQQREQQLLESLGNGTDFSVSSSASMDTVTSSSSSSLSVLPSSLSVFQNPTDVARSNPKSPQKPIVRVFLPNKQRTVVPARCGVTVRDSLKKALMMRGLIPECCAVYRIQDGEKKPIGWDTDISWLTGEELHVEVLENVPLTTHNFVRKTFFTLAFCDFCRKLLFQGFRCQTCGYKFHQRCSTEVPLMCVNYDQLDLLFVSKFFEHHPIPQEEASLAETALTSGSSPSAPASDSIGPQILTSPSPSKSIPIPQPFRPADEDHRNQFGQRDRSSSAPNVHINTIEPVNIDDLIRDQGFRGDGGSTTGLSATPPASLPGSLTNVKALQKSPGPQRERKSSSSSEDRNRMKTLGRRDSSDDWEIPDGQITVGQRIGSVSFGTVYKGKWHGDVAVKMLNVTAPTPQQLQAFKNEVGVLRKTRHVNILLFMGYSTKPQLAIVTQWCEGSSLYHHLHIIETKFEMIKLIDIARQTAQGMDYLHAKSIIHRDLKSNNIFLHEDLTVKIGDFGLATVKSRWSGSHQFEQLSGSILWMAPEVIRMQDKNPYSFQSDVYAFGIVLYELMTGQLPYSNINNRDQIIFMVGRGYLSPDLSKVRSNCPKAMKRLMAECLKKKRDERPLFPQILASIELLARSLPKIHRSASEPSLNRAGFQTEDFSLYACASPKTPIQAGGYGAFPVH
- ASSAY NOTES: Target protein degradation, assay D: T-Rex 293 cells, HA-BRAF_G466V, 384 well format
- Type: cell-based
- CONDITION SUMMARY: Assay D, T-Rex 293 HA-BRAF_G466V cells, 24 hours, Examples 83-269

MOLECULE: N#Cc1c(NS(=O)(=O)N2CC[C@@H](F)C2)ccc(F)c1Oc1ccc2ncn(-c3ccc(N4CCN(C(=O)C5CCN(c6ccc7c(c6)CN(C6CCC(=O)NC6=O)C7=O)CC5)CC4)cc3)c(=O)c2c1 (single isomer, unassigned) [Example 241]
DC50: > 30 nM
//
MOLECULE: N#Cc1c(NS(=O)(=O)N2CC[C@@H](F)C2)ccc(F)c1Oc1ccc2ncn(-c3ccc(N4CCC5(CCN(CC6CCN(c7ccc8c(c7)C(=O)N(C7CCC(=O)NC7=O)C8=O)CC6)CC5)CC4)nc3)c(=O)c2c1 (some centres unmarked)
DC50: 1 to 10 nM
//
MOLECULE: N#Cc1c(NS(=O)(=O)N2CC[C@@H](F)C2)ccc(F)c1Oc1ccc2ncn(-c3ccc(N4CCC5(CC4)CN(CC4CCN(c6ccc7c(c6)CN([C@@H]6CCC(=O)NC6=O)C7=O)CC4)C5)cc3)c(=O)c2c1
DC50: 1 to 10 nM
//
MOLECULE: N#Cc1c(NS(=O)(=O)N2CC[C@@H](F)C2)ccc(F)c1Oc1ccc2ncn(-c3cnc(N4CCCC4CC4CCN(c5ccc6c(c5)C(=O)N(C5CCC(=O)NC5=O)C6=O)CC4)nc3)c(=O)c2c1 (some centres unmarked)
DC50: 10 to 30 nM

Provide value of DC50 for this record tested with B-RAF G466V (Homo sapiens, UniProt P15056, G466V): N#Cc1c(NS(=O)(=O)N2CC[C@@H](F)C2)ccc(F)c1Oc1ccc2ncn(-c3cccc(N4CCN(CC5CCN(c6ccc7c(c6)CN([C@H]6CCC(=O)NC6=O)C7=O)CC5)CC4)c3)c(=O)c2c1 1 to 10 nM

###

Each record here notes measured Dmax.
- EXPERIMENTAL TARGET: B-RAF V600E (Homo sapiens, UniProt P15056, V600E)
- Construct: expressed in transfected cells; host or cells: T-Rex 293 cells (Invitrogen #R71007)
- Sequence (P15056 whole entry V600E): as the sequence (P15056 whole entry G466V) above, with V466G, V600E counted along it
- ASSAY NOTES: Target protein degradation, assay C: T-Rex 293 cells, HA-BRAF_V600E, 384 well format
- Type: cell-based
- CONDITION SUMMARY: T-REx-293, Assay C, T-Rex 293 HA-BRAF_V600E cells, 24 hours, Examples 83-269

COMPOUND: N#Cc1c(NS(=O)(=O)N2CC[C@@H](F)C2)ccc(F)c1Oc1ccc2ncn(-c3ccc(N4CCC(CN5CCN(c6ccc7c(c6)CN([C@H]6CCC(=O)NC6=O)C7=O)CC5)C4)cc3)c(=O)c2c1 (stereo partly drawn)
EXPERIMENTAL TARGET: B-RAF V600E (Homo sapiens, UniProt P15056, V600E)
Dmax: 35 to 70%

Can you share its Dmax? I mean this compound: N#Cc1c(NS(=O)(=O)N2CC[C@@H](F)C2)ccc(F)c1Oc1ccc2ncn(-c3ccc(N4CCN(CCCOc5cccc6c5C(=O)N(C5CCC(=O)NC5=O)C6=O)CC4)nc3)c(=O)c2c1 (stereo partly drawn) 35 to 70%

Can you share its Dmax? I mean this compound: N#Cc1c(NS(=O)(=O)N2CC[C@@H](F)C2)ccc(F)c1Oc1ccc2ncn(-c3ccc(N4CCC(CN5CCN(CC6CCN(c7ccc8c(c7)CN([C@H]7CCC(=O)NC7=O)C8=O)CC6)CC5)CC4)cc3)c(=O)c2c1 35 to 70%

Can you share its Dmax? I mean this compound: N#Cc1c(NS(=O)(=O)N2CC[C@@H](F)C2)ccc(F)c1Oc1ccc2ncn(-c3cnc(C4(N5CCN(CC6CN(c7ccc(C8CCC(=O)NC8=O)cc7F)C6)CC5)CC4)nc3)c(=O)c2c1 (stereo partly drawn) 35 to 70%

Can you share its Dmax? I mean this compound: N#Cc1c(NS(=O)(=O)N2CC[C@@H](F)C2)ccc(F)c1Oc1ccc2ncn(-c3ccc(N4CCN(CC5CN(c6cc(F)c7c(c6)CN(C6CCC(=O)NC6=O)C7=O)C5)CC4)cc3)c(=O)c2c1 (stereo partly drawn) ≥ 70%

Can you share its Dmax? I mean this compound: N#Cc1c(NS(=O)(=O)N2CC[C@@H](F)C2)ccc(F)c1Oc1ccc2ncn(-c3cnc(C4(N5CCN(CC6CCN(c7ccc8c(c7)CN(C7CCC(=O)NC7=O)C8=O)CC6)CC5)CC4)nc3)c(=O)c2c1 (stereo partly drawn) 35 to 70%

Can you share its Dmax? I mean this compound: C[C@H]1CN(CC2CCN(c3ccc4c(c3)CN([C@H]3CCC(=O)NC3=O)C4=O)CC2)CCN1c1ccc(-n2cnc3ccc(Oc4c(F)ccc(NS(=O)(=O)N5CC[C@@H](F)C5)c4C#N)cc3c2=O)cc1 35 to 70%

Can you share its Dmax? I mean this compound: Cc1c(N2CCC(CN3CCN(c4ccc(-n5cnc6ccc(Oc7c(F)ccc(NS(=O)(=O)N8CC[C@@H](F)C8)c7C#N)cc6c5=O)cc4)CC3)CC2)ccc2c1CN(C1CCC(=O)NC1=O)C2=O (single isomer, unassigned) [Example 111] 35 to 70%

Can you share its Dmax? I mean this compound: N#Cc1c(NS(=O)(=O)N2CC[C@@H](F)C2)ccc(F)c1Oc1ccc2ncn(-c3ccc(N4CCC(CN5CC6(CC(c7ccc8c(c7)CN(C7CCC(=O)NC7=O)C8=O)C6)C5)CC4)cc3)c(=O)c2c1 (stereo partly drawn) ≤ 35%
